B1: glmS ribozyme (parent)
chain: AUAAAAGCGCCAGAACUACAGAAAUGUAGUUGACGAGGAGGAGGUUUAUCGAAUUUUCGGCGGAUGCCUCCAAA

# Variants of: B1
# procedure_text: self-cleavage kobs at 2500 uM GlcN6P; higher = faster cleavage; RNA array
# details: with glucosamine-6-phosphate
This sample holds only a part of the variants without activity.
Listing of recorded self-cleavage kobs at 2500 uM GlcN6P by entry.
outcome_measure: self-cleavage kobs at 2500 uM GlcN6P

1) AUAAAAGCGCCAGAACUACAGAAAUGUAGUUGUCGAGGAGGAAGUUUAUCGAAUUUCCGGCGGAUGCCUCCAAA	< 1e-05 s⁻¹
2) AUAAAAUCGCCAGAACUACAGAAAUGUAGUUGAUGAGGAGGAGGUUUAUCGAAUUUUCGUCGGGUGCCUCCAAA	< 1e-05 s⁻¹
3) AUAAACGCGACAGAACUACAGAAAUGUAGUUGACAAGGAGGAGGUUUAUCGAAUUUUGGGCGGAUGCCUGCAAA	0.000134 s⁻¹
4) AUAAAAGCGCCUGAACUACAGAAAUGUAGUUAACGAGGAGGAGGUUUAUCGAAUUUUCGACGGAUGCCUCCAAA	< 1e-05 s⁻¹
5) AUAAAAUCGCCCGAACUACAGAAAUGUAGUUGACGAGGAGGAGGUUUAUCGAAAUUUAGGCGGAUGCCUGCAAA	< 1e-05 s⁻¹
6) AUAAAAGCGCCAGACCUACAGAAAUGUAGUUGACGAGGAGGAGGUUGAUCGAAUUUUCGGCGGAUGCGUCCAAA	5.59e-05 s⁻¹
7) AUAAAAGCGCCGGAACUACAGAAAUGUAGUUGACGAGGAGGAGGUGUAUCGAAUUUUCGGCGGAUGCCUCUAAA	9.1e-05 s⁻¹
8) AUAAAAGCACCAGAACUACAGAAAUGUAGUUGAAGAGGAGGAGGUUUAUCGAAUUUUCGGCGGAUGCCUCCAAA	< 1e-05 s⁻¹
9) AUAAAAGCGCCAGAACUACAGAAAUGUAGUUGGCGAGGACGAGGUUUAUCGAAUUUUCGGCGUAUGCCUCCAAA	< 1e-05 s⁻¹
10) AUAAAAGCUCCAGAACUACAGAAAUGUAGUUGACGAGGAGGAGGGUUAUCGAAUUUUCGGCCGAUCCCUCCAAA	< 1e-05 s⁻¹
11) AUAAAAGCGCCACGACUACAGAAAUGUAGUUAACGAGGAGGAGGUUUAUCGAAUUUUCGGCGGAUGCCUCCAAA	0.00874 s⁻¹
12) AUAAAAGCGCCAGGACUACAGAAAUGUAGUUGACGGGGAGGAGGUUUAUCGAAUUGUCCGCUGAUGCCUCCAAA	< 1e-05 s⁻¹
13) AUAAAAGCGCCAGAACUACAGAAAUGUAGUUGGCGAGGAGGUGGUUAAUCGAGUUUUCGGCGGAUGCCUCCAAA	< 1e-05 s⁻¹
14) AUAAAAGCGCCAGCACUACAGAAAUGUAGUUGACAAGGAGGAGGUUUAUCGGAUUUUCGGCGGAUGCCUCCAAA	< 1e-05 s⁻¹
15) AUAAAAUCGCCAGAACUACAGAAAUGUAGUUGACGAGGAGGAGGUUUAUCGAAUUUUCGGCCCAUGCCCCCAAA	< 1e-05 s⁻¹
16) AUAAAUGCGCCAGAACUACAGAAAUGUAGUAGACGAGGAGGAUGUUUAUCGAAUUUUCGGCGGAUGCCUCCAAA	< 1e-05 s⁻¹
17) AUAAAAGCGCGAGAGCUACAGAAAUGUAGUUGACGAGGAGGAGGUUUAUCGAAUUUUCUGCGGAUGCCUCCAAA	9.06e-05 s⁻¹
18) AUAAAAUCGCCAGAACUACAGAAAUGUAGUUGACGAGGAGAAGGUUUAUCGAAUUUUCGGCGGUUGCCUCCAAA	< 1e-05 s⁻¹
19) AUAAAAGUGCCAGAAUUACAGAAAUGUAGUUGACGAGGAGGAGGUUUAUCGAAUUUUCGACGGAUGACUCCAAA	< 1e-05 s⁻¹
20) AUAAAAGCGCCAGAACUACAGAAAUGUAGUUGACGACGAGGAGGUUUAUCGAAUGUUCGGCGAAUGCCUCGAAA	< 1e-05 s⁻¹
21) AUAAAAGCGCCAGAUCUACAGAAAUGUAAUUGACUAAGAGGAGGUUUAUCGAAAUUUCGGCGGAUGCCUCCAAA	< 1e-05 s⁻¹
22) AUAAAAGUGCCAGAACUACAGAAAUGUAGUUGACGAGGAGGAGGUUUUUCGAAUUUUCGCCGGAUGCCUCCAAA	< 1e-05 s⁻¹
23) AUAAAAGCGCCCGAAUUACAGAAAUGUAGUUGACGAGGAGGAGGUUUAUCGAGUUUUCGGCGGAGGCCUCCAAA	0.000899 s⁻¹

Provenance of the data: the supplement of paper PMC7125110
